Source: patent US20230227427A1

# target_desc: human recombinant IL-17A (Homo sapiens)
# Construct: purchased R&D Systems 7955-IL/CF
# assay_name: IL-17A AlphaLISA assay (block binding of IL-17A to its receptor IL-17RA)
# condition_info: compounds pre-incubated with the IL-17A for 30 min (indicated by * in Table A); read-out: AlphaLISA pIC50 (converted)
measured_parameter: IC50 (nM)

Would you please look over these solved cases?
>  <given_smiles>
CCn1nccc1C(=O)N[C@H](C(=O)Nc1ccc(-c2c(C)n[nH]c2C)nc1)C1CCCCCC1

>  <target_desc>
human recombinant IL-17A (Homo sapiens)

>  <IC50 (nM)>
63.1

$$$$
>  <given_smiles>
Cc1cnn(C)c1-c1ccc(NC(=O)[C@@H](NC(=O)c2cnnn2C)[C@H]2CC[C@H](C)CC2)nc1

>  <target_desc>
human recombinant IL-17A (Homo sapiens)

>  <IC50 (nM)>
316

$$$$
>  <given_smiles>
Cc1nonc1C(=O)N[C@H](C(=O)Nc1ccc(-c2c(C)noc2C)cn1)[C@H]1CC[C@H](C)CC1

>  <target_desc>
human recombinant IL-17A (Homo sapiens)

>  <IC50 (nM)>
251

$$$$

a. Cc1cnn(C)c1-c1ccc(NC(=O)[C@@H](NC(=O)c2ccnn2C)[C@H]2CC[C@H](C)CC2)cn1
b. CCc1nocc1C(=O)N[C@H](C(=O)Nc1ccc(-c2c(C)n[nH]c2C)nc1)[C@H]1CC[C@H](C)CC1
c. CCn1nccc1C(=O)N[C@H](C(=O)Nc1ccc(-c2c(CO)cnn2C)cn1)C1CCCCCC1
d. CCn1nccc1C(=O)N[C@H](C(=O)Nc1ncc(-c2c(C)noc2C)cc1F)C1CCCCCC1
Arrange the 4 entries by IC50 so the values rise. Arrange the labels as the request states and list them.
d, b, c, a
(d: 63.1 nM, b: 100 nM, c: 200 nM, a: 398 nM)

---

# target_desc: human recombinant IL-17A (Homo sapiens)
# Construct: purchased R&D Systems 7955-IL/CF
# Sequence (Q16552 24-155): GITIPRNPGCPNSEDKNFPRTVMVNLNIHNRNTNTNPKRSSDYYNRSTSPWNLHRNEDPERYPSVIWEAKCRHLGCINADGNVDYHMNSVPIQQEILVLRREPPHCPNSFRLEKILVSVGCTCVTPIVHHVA
# assay_name: IL-17A AlphaLISA assay (block binding of IL-17A to its receptor IL-17RA)
# condition_info: compounds pre-incubated with the IL-17A for 24 h at room temperature; read-out: AlphaLISA pIC50 (converted)
measured_parameter: IC50 (nM)

Would you please look over these solved cases?
>  <given_smiles>
Cc1cc(-c2ccc(NC(=O)[C@@H](NC(=O)c3ccnn3C)C(c3ccccc3)c3ccccc3)cc2F)c(C)cn1

>  <units_text>
nM

>  <IC50>
100

$$$$
>  <given_smiles>
Cn1nccc1C(=O)N[C@H](C(=O)Nc1ccc(C2=CCOCC2)cc1)[C@H]1CC[C@H](C)CC1

>  <units_text>
nM

>  <IC50>
100

$$$$
>  <given_smiles>
Cc1[nH]ncc1-c1ccc(NC(=O)[C@@H](NC(=O)c2ccnn2C)C(c2ccccc2)c2ccccc2)cc1

>  <units_text>
nM

>  <IC50>
31.6

$$$$
>  <given_smiles>
Cc1cncc(C)c1-c1ccc(NC(=O)[C@@H](NC(=O)c2ccnn2C)C(c2ccccc2)c2ccccc2)cc1F

>  <units_text>
nM

>  <IC50>
39.8

$$$$
>  <given_smiles>
Cn1nccc1C(=O)N[C@H](C(=O)Nc1ccc(-c2cc[n+]([O-])cc2CC(=O)N2CCCC2)cc1)C(c1ccccc1)c1ccccc1

>  <units_text>
nM

>  <IC50>
251

$$$$

a. Cc1cnccc1-c1ccc(NC(=O)[C@@H](NC(=O)c2ccnn2C)C(c2ccccc2)c2ccccc2)cc1
b. CCn1nccc1C(=O)N[C@H](C(=O)Nc1ccc(-c2cn[nH]c(=O)c2)c(F)c1)C(c1ccccc1)c1ccccc1
Field: entry with larger IC50 (options a / b ). Bench note: the answer is the label of the chosen record.
b
(b: 398 nM, a: 20 nM)

P. CCn1nccc1C(=O)N[C@H](C(=O)Nc1ccc(-c2ccc(=O)[nH]n2)c(F)c1)C(c1ccccc1)c1ccccc1
Q. COc1cnccc1-c1ccc(NC(=O)[C@@H](NC(=O)c2ccnn2C)C(c2ccccc2)c2ccccc2)cc1OC
R. COc1cnccc1-c1ccc(NC(=O)[C@@H](NC(=O)c2ccnn2C(F)F)C(c2ccccc2)c2ccccc2)cc1
S. Cc1cnccc1-c1ccc(NC(=O)[C@@H](NC(=O)c2ccnn2C)C(c2ccccc2)c2ccccc2)cc1F
Arrange by IC50, high to low. Arrange the labels as the request states and list them.
P, R, S, Q
